Answer each item with its documented Population Normal (%).
Tested on: Fibroblast
ASSAY NAME: Multiplex assay against human fibroblast
Format: toxicity, cell-based
APPLIED CONDITIONS: 48 h, 1 µM, compound concentration 1 uM, number of replicates 2
*1 amine or outer side, *2 acyl side, *3 side chain or, on linkers, in order; H or OH if unused. Where a SMILES comes first, the peptide text is derived from it. Bridges are numbered along the chain shown (N, C = ends). Roman numbers before positions name the chains, in order. [ ]: non-standard residue; d: D form. Hexamethylenediamine = C(CCCN[*:2])CCN[*:1]; Dip = N[C@H](C(=O)O)C(c1ccccc1)c1ccccc1; Chg = N[C@H](C(=O)O)C1CCCCC1; NMeA = CN[C@@H](C)C(=O)O
Give bare numbers, in %.

Observe how each entry below is paired with its result.
COMPOUND | UNIT OF MEASUREMENT | Population Normal (%)
CN[C@@H](C)C(=O)N[C@H](C(=O)N1CCC[C@H]1C(=O)N[C@H](C(=O)NCCCCCCNC(=O)[C@@H](NC(=O)[C@@H]1CCCN1C(=O)[C@@H](NC(=O)[C@H](C)NC)C1CCCCC1)C(c1ccccc1)c1ccccc1)C(c1ccccc1)c1ccccc1)C1CCCCC1 (I: H-[NMeA][Chg]P[Dip] / II: H-[NMeA][Chg]P[Dip]; linker I:C-II:C via Hexamethylenediamine) | % | 100
CN(C)CCCNc1ccnc(Nc2cccc(Cl)c2)n1 | % | 99
CC(C)(C)c1cnc(CSc2cnc(NC(=O)C3CCNCC3)s2)o1 | % | 100
CS(=O)(=O)c1ccc(C(=O)Nc2cc(F)cc(COc3cc(F)c(Br)cc3CN3CC[C@H](O)C3)c2)c(Cl)c1.O=CO | % | 100
O=C1Nc2ccc(C(=O)c3ccco3)cc2C1=Cc1cc(Cl)c(O)c(Cl)c1 [GW406108X] | % | 100

// `CNc1ncc2cc(-c3ccc(-c4cccc(C)n4)cc3Cl)c(=O)n(C[C@H]3OC[C@H](N)CO3)c2n1` : Population Normal (%) value = 100
